Test: NCI Yeast Anticancer Drug Screen. Data for the sgs1 mgt1 strain (AID 161);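 further: 0% = growth of cultures given vehicle only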
Details: S. cerevisiae sgs1 mgt1 strain, at 50.0 µM (retest, dose inferred, filed as 5.0), active compounds read high
Method: Growth inhibition of yeast strains with defined genetic alterations is measured as a screen for potential anti-cancer activity. Selected strains with alterations in DNA damage repair or cell cycle control were exposed to compounds and growth inhibition was measured relative to vehicle treated controls. The strain used in this assay is sgs1 mgt1
Compounds without any hit were thinned out: in the full panel of roughly 79,000, 15% have a hit.
criterion met means recorded growth inhibition is 50% or above; criterion not met means it is below 50%.

compound="CC(=O)C1(O)C(Br)CC2C3CC=C4CC(O)CCC4(C)C3CCC21C (configuration not stated)" group_label="criterion met"
compound="CCC(C)(O)C#Cc1ccc(C)nc1 (configuration not stated)" group_label="criterion not met"
compound=O=[N+]([O-])c1cccc(F)c1O group_label="criterion met"
compound=ONC(=Nc1ccccc1)c1ccccc1 group_label="criterion met"
compound=CC1(C)OC(=O)C(=NNc2ccccc2[N+](=O)[O-])C(=O)O1 group_label="criterion not met"
compound=CC(=O)Oc1ccc(-c2ccc(Br)cc2)cc1 group_label="criterion met"
compound=O=C(O)c1cc2c3ccccc3sc2c2ccccc12 group_label="criterion not met"
compound=O=C1Nc2c(ccc(Cl)c2I)C1=O group_label="criterion met"
compound=O=C(OCc1ccccc1CN1CCOCC1)c1ccc(Br)cc1 group_label="criterion met"
compound=O=[N+]([O-])/C(Br)=C\c1ccc([N+](=O)[O-])cc1 group_label="criterion met"
compound=O=C(Nc1ccc(-c2cn3ccccc3n2)cc1)c1cc(Br)ccc1O group_label="criterion not met"

====

Test: NCI Yeast Anticancer Drug Screen. Data for the mec2-1 strain (AID 157)
Details: S. cerevisiae mec2-1 strain, at 50.0 µM, active compounds read high
The panel holds about 79,000 compounds, 15% with a hit somewhere; the sample as a whole holds those more often.
Readout Type: growth inhibition (%)

molecule=O=C(O)c1nc2cc(C(F)(F)F)ccc2nc1Nc1ccc(F)cc1 measured_number=68.2
molecule=CCCCCCCCCCCCNCC#N measured_number=72.2
molecule=N#Cc1c(-c2ccc([N+](=O)[O-])cc2)c(C#N)c(=O)n(NS(=O)(=O)c2ccccc2)c1S measured_number=81.6
molecule="O=C1OC(OCC#CCOC2OC(=O)C(Cl)=C2Cl)C(Cl)=C1Cl (stereo not given)" measured_number=99.7
molecule=Clc1ccc(CN2COc3c(cc(Cl)c4cccnc34)C2)c(Cl)c1 measured_number=22.9
molecule="Cc1ccc2c(c1)C1(SC(CC(=O)O)C(=O)N1c1ccc(Cl)cc1)C(=O)N2 (stereo not given)" measured_number=12.3
molecule=Cc1ccc(NC(=O)COC(=O)c2cccc3c(=O)c4ccccc4[nH]c23)cc1 measured_number=43.3
molecule=CCCC(=O)c1cc(O)c(O)c(CN(C)Cc2cc(Cl)cc(C)c2O)c1O measured_number=52.5
molecule=ClC1(Cl)C(Cl)(Cl)C12c1ccccc1-c1ccccc12 measured_number=98.8
molecule=Cc1cccnc1NC(=S)Nc1ccccc1Cl measured_number=91.3
molecule=CSC(=S)N/N=C\C(C)=N/N=C(N)N measured_number=74.5
molecule=C=CCN1/C(=C\C=C\c2ccc3cc(C)ccc3[n+]2CC=C)C=Cc2cc(C)ccc21 measured_number=91.1
molecule="CC1(C)COC(c2cccc(C(O)c3ccc(Cl)cc3)c2)=N1 (stereo not given)" measured_number=68
molecule=COc1ccc(/C=C(/NC(=O)c2ccccc2)C(=O)Nc2ccccc2)cc1OC measured_number=16.1
molecule=CC(=O)NNc1nc(C)c(C(=O)NNC(=O)C(=O)Nc2c(C)cccc2C(C)C)s1 measured_number=33
molecule=CC1=C(Br)S(=O)(=O)N(c2ccccc2)C(CBr)=C1Br measured_number=18.1
molecule=Cn1cc(NC(=O)Nc2cc(C(=O)Nc3cc(C(=O)Nc4cc(S(=O)(=O)O)c5cc(S(=O)(=O)O)cc(S(=O)(=O)O)c5c4)n(C)c3)n(C)c2)cc1C(=O)Nc1cc(C(=O)Nc2cc(S(=O)(=O)O)c3cc(S(=O)(=O)O)cc(S(=O)(=O)O)c3c2)n(C)c1 measured_number=66.8
molecule=O=C1c2ccccc2C(=O)N1/N=C\c1ccccc1[N+](=O)[O-] measured_number=4.9
molecule=CCCCCCC/C=C\C(=O)O measured_number=17.9
molecule=O=C(N/N=C/c1ccccn1)c1ccccc1[O-].O=C(N/N=C/c1ccccn1)c1ccccc1[O-].[Co+2] measured_number=48.1

====

Test: NCI Yeast Anticancer Drug Screen. Data for the mec2-1 strain (AID 157)
Conditions: S. cerevisiae mec2-1 strain, at 5.0 µM (retest, dose inferred, filed as 0.5)
About 79,000 compounds went through this panel and 15% of them were active in at least one assay; those are over-represented in the sample as a whole. Activity calls are given as the source filed them. Rule as the data show it: active = growth inhibition above about 70%; inactive = the rest. Where a SMILES comes first, the peptide text is derived from it. The star is where a group is joined. Cbz = O=C(OCc1ccccc1)*
Outcomes: active, inactive

compound=CCN(CC)C(=O)CCCCC(=O)OC(C)C group_label=inactive
compound=CCCCCCCCCCCCCCC[N+]1(CC)CCCCC1 group_label=active
compound=Cc1ccc(C(Cl)(c2ccc(C)cc2)c2ccc(C)cc2)cc1 group_label=inactive
compound=O=C(/C=C/c1ccccc1)c1cc2c(cc1O)OCO2 group_label=inactive
compound="CCCCCCCCCCCCCCCC[N+](C)(C)C(C)c1ccccc1 (stereo not drawn)" group_label=active
compound=C#CC(=O)OCC#CCOC(=O)C#C group_label=inactive
compound="CN1C(=O)C(Cl)(C(Cl)(Cl)S(=O)(=O)O)C(=O)c2ccccc21 (stereo not drawn)" group_label=inactive
compound=CC(=O)Nc1ccc(/C=N\NC(=O)c2ccco2)cc1 group_label=inactive
compound="COc1ccc(C2COc3c(ccc(O)c3O)C2)cc1 (stereo not drawn)" group_label=inactive
compound=Nc1c(/C=C/c2cc3ccc(C4=NCCN4)cc3[nH]2)[nH]c2cc(C3=NCCN3)ccc12 group_label=inactive
compound="CC1CCCC(CCN(C)CCC2CCCCC2)CC1 (stereo not drawn)" group_label=inactive
compound="CCCCCCCCN(CCCCCCCC)C(=O)C(C)O (stereo not drawn)" group_label=inactive
compound=C=C(c1ccccc1)[P+](c1ccccc1)(c1ccccc1)c1ccccc1 group_label=active
compound=c1ccc(-n2c3ccccc3c3ccccc32)cc1 group_label=inactive
compound=O=[N+]([O-])c1cc2[nH]cnc2c([N+](=O)[O-])c1NCc1ccccc1 group_label=inactive
compound="CCCC1=C(c2ccccc2)C(O)(c2ccccc2)C(CCC)C1=O (stereo not drawn)" group_label=inactive
compound=CSc1nc(C)cc(SCc2ccc(Cl)cc2Cl)n1 group_label=inactive
compound=COc1cc(CC#N)c(NC(C)=O)cc1OC group_label=inactive
compound=Cc1c[nH]c(C(=O)O)c1-c1ccc2c(-c3ccccc3)nc3ccccc3n12 group_label=inactive
compound="CSC(SC)=C1C(=O)NC(Cc2ccccc2)C1=O (stereo not drawn)" group_label=inactive
compound=Fc1ccc2c(c1)Nc1cc(F)cc(F)c1S2 group_label=inactive
compound=CCCNC(=S)N/N=C(/C)c1nccc2ccccc12 group_label=inactive
compound=Cc1cccc(NC(=S)N/N=C(/c2ccccc2)c2ccccn2)c1 group_label=inactive
compound="COc1ccccc1C1C(Cl)C(=O)N1n1cnc2ccccc2c1=O (stereo not drawn)" group_label=inactive
compound=Clc1ccc(C2=NCON=C2c2ccc(Cl)cc2)cc1 group_label=inactive
compound=C(=N\NC1=NCCN1)/c1ccc(-c2cn3cc(/C=N/NC4=NCCN4)ccc3n2)cc1 group_label=active
compound="O=C1OC(c2ccccc2)(c2ccccc2)CC1CN1CCOCC1 (stereo not drawn)" group_label=inactive
compound="COC1CC(OC(=O)c2ccccc2)C2OC(c3ccccc3)OCC2O1 (stereo not drawn)" group_label=inactive
compound="O=C(NC(Cc1ccc(O)cc1)C(=O)NC(Cc1ccccc1)C(=O)O)OCc1ccccc1 (stereo not drawn) (Cbz-Tyr-Phe-OH; configuration not given here)" group_label=inactive
compound=CC(C)/C(Cl)=N/OC(=O)Nc1ccc(OC(F)(F)F)cc1 group_label=inactive
compound=CC(=O)OCc1ccc([N+](=O)[O-])o1 group_label=inactive
compound=O=C(Oc1c(I)ccccc1=O)c1ccc([N+](=O)[O-])cc1 group_label=inactive
compound=CS/C(=N\C(=S)N(C)C)N(c1ccccc1)c1nc(=[N+](C)C)ss1 group_label=inactive
compound=Fc1ccc(NC2=NCCN=C(Nc3ccc(F)cc3)SS2)cc1 group_label=inactive
compound="O=C1C(C(O)(C(F)(F)Cl)C(F)(F)Cl)CCC1C(O)(C(F)(F)Cl)C(F)(F)Cl (stereo not drawn)" group_label=active
compound=CCc1ccc(C(=O)O)cc1 group_label=inactive
compound=C=CCc1cc([N+](=O)[O-])ccc1O group_label=inactive
compound=O=C(CN1CCCCC1)c1ccc(/C=C/c2ccc(Cl)cc2)cc1 group_label=inactive
compound="Cc1ccc(NC(=O)CC2SC(N)=NC2=O)cc1C (stereo not drawn)" group_label=inactive
compound="CCCCCCOC(=O)C(N)Cc1ccc(OC)cc1 (stereo not drawn)" group_label=inactive
compound=CCCCCCCCCCCCCCCCNCCCN(C)CCCN group_label=inactive
compound="COC(=O)CC1SC(=S)N(Cc2ccc(Cl)cc2)C1=O (stereo not drawn)" group_label=inactive
compound=Oc1cc(CNCc2ccccc2)c(O)c(CNCc2ccccc2)c1 group_label=inactive
compound="CCCCN(CC(O)c1ccc(Cl)cc1)c1ccccc1 (stereo not drawn)" group_label=inactive
compound=CCOC(=O)C(C(=O)OCC)c1ccc([N+](=O)[O-])o1 group_label=inactive
compound=ONC(=Nc1ccccc1)c1ccccc1 group_label=inactive
compound=O=C(O)CCCc1ccc2c(c1)CC1(C2)Cc2ccc(CCCC(=O)O)cc2C1 group_label=inactive
compound=C=C1N(S(=O)(=O)c2ccc(C)cc2)C(=O)OCC12CCCC2 group_label=inactive
